test system: MALME-3M melanoma; assay: NCI-60 one-dose screen, 48 h; conditions: 10 µM unless noted
The panel holds about 83,000 compounds, 20% with a hit somewhere; the sample as a whole holds those more often. Calls of active or inactive are those of the source. How the source made its calls: active means growth percent below 10; inactive means the rest.
Labels: active, inactive

{"columns": ["MOLECULE", "GROUP_LABEL"],
 "data": [
  ["Cc1ccc(C2=Nc3c(N)ncnc3NC(c3ccc4c(c3)OCO4)C2)cc1 (stereo unspecified)", "inactive"],
  ["C[C@]12C=CC(=O)C=C1CCC1C2[C@@H](O)C[C@@]2(C)C1CC[C@]2(O)C(=O)COC(=O)CCC(=O)O (stereo partly specified)", "inactive"],
  ["COc1ccc(/C=C2\\COc3ccc(O)c(O)c3C2=O)cc1", "active"],
  ["c1cc2[nH]ncc2cc1-c1nc2ccc3[nH]ncc3c2c2c1CCCC2", "inactive"],
  ["CCOC(=O)C(=Cc1cccc(Br)c1)C(=O)OCC", "inactive"],
  ["COc1cc(CNC(=O)CCCC/C=C/C(C)C)ccc1OCc1nnc(Nc2ccc([N+](=O)[O-])cc2)o1", "inactive"]
]}
